Provenance of the data: patent US12590099B2

target: Recombinant human HDAC8 (Homo sapiens); construct: purchased Enzo Life Sciences BML-SE145-0100; assay: Human HDAC enzyme inhibitor Fluor-de-Lys assay, HDAC8; type: biochemical; details: recombinant human HDAC8, Fluor-de-Lys assay
Sequence (Q9BY41 whole entry): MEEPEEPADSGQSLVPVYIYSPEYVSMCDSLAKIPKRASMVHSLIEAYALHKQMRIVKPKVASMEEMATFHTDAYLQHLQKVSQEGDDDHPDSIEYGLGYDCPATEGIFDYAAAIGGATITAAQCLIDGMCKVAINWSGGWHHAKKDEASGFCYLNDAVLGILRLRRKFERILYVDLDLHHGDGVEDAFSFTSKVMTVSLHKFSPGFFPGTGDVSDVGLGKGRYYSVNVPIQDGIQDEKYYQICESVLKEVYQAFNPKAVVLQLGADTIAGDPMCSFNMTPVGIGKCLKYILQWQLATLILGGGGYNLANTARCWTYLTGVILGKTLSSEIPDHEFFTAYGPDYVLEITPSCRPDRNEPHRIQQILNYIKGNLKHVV
Some molecules, each annotated with its measured pIC50.
// field semantics: pIC50 = negative decimal log of concentration (mol/L)

Look over these answered cases.
- MOLECULE: "CCC(=O)CCCCC[C@H](NC(=O)[C@H]1CC[C@@]2(CC1)OC(=O)c1ccncc12)c1ncc(-c2ccccc2)[nH]1 [Compound 372]"
  pIC50: 5.11
- MOLECULE: "CCC(=O)CCCCC[C@H](NC(=O)C1(N)CC2(CN(C)C2)C1)c1ncc(-c2cc3ccccc3nc2OC)[nH]1 [Compound 276]"
  pIC50: 5.30
- MOLECULE: "CCC(=O)CCCCC[C@H](NC(=O)C1CCC2(CC1)CN(CC)C2)c1ncc(-c2cc3ccccc3nc2OC)[nH]1 [Compound 271]"
  pIC50: 5.76
- MOLECULE: "CCC(=O)CCCCC[C@H](NC(=O)C1CC12CCN(CC)CC2)c1nc(-c2ccc(F)cc2)[nH]c1-c1cnc(OC)nc1 (stereo partly shown) [Compound 247]"
  pIC50: 4.66
- MOLECULE: "CCC(=O)CCCCC[C@H](NC(=O)[C@H]1CC12CCN(C)CC2)c1ncc(-c2ccc3cnc(Cl)cc3c2)[nH]1 [Compound 351]"
  pIC50: 5.23

Fill in pIC50 for CCC(=O)CCCCC[C@H](NC(=O)C1CC12CCN(CC)CC2)c1nc(-c2ccc(F)cc2)[nH]c1-c1ccn(C)c1 (stereo partly shown) [Compound 251] tested with Recombinant human HDAC8 (Homo sapiens).
4.53

Under Recombinant human HDAC8 (Homo sapiens), report pIC50 for CCC(=O)CCCCC[C@H](NC(=O)[C@H]1CC12CCN(C)CC2)c1ncc(-c2ccc(-c3cccnc3)nc2)[nH]1 [Compound 262]
4.90

Write pIC50 of CCC(=O)CCCCC[C@H](NC(=O)[C@H]1CC12CCN(CC)CC2)c1ncc(-c2cnc3cc(C(F)(F)F)ccc3c2)[nH]1 [Compound 341] ; system used: Recombinant human HDAC8 (Homo sapiens)
4.92

###

biological target: Recombinant human HDAC2 (Homo sapiens, UniProt Q92769); construct: Full length human HDAC2-FLAG was expressed in baculovirus infected Sf9 cells; FLAG (C); made in house; host or cells: Sf9 (baculovirus); assay: Human HDAC enzyme inhibitor Fluor-de-Lys assay, HDAC2; assay type: biochemical
Sequence (Q92769 whole entry): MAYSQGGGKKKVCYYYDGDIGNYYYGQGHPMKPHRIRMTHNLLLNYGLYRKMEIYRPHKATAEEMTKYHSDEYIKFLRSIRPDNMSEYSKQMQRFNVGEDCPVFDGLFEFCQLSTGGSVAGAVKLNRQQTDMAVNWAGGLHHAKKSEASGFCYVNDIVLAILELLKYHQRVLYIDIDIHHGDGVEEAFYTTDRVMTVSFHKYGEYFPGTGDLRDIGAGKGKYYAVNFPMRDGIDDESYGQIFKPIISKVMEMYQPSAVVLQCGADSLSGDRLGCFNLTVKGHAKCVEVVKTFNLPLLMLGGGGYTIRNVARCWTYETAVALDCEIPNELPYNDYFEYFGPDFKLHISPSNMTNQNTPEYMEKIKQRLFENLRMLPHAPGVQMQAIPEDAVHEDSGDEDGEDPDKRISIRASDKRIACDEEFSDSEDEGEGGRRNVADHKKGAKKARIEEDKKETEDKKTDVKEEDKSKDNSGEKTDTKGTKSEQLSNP
Listing of entries alongside the reported IC50.
The reply should be a number in nM, with the unit left off.

Observe how each entry below is paired with its result.
- MOLECULE: "CCC(=O)CCCCC[C@H](NC(=O)C1CC12CCN(C)C(C)(C)C2)c1ncc(-c2ccc3nc(C)ccc3c2)[nH]1 (single isomer, unassigned) [Compound 130]"
  UNIT_SPEC: "nM"
  IC50: 15.3
- MOLECULE: "CCC(=O)CCCCC[C@H](NC(=O)[C@H]1CC12CCN(C(C)C)CC2)c1ncc(-c2cc3ccccc3nc2OC)o1"
  UNIT_SPEC: "nM"
  IC50: 17.8
- MOLECULE: "CCC(=O)CCCCC[C@H](NC(=O)C1(C)CC12CCN(C(C)C)CC2)c1ncc(-c2ccc3nc(C)ccc3c2)[nH]1 (single isomer, unassigned)"
  UNIT_SPEC: "nM"
  IC50: 4

Identify the reported IC50 for the following entry. CCC(=O)CCCCC[C@H](NC(=O)[C@H]1CC12CCN(C)CC2)c1[nH]c(-c2ccc(F)cc2)nc1C#N
19.7

Give a short answer stating reported IC50 for CCC(=O)CCCCC[C@H](NC(=O)[C@H]1CC12CCN(C)CC2)c1nc(F)c(-c2cc3ccccc3nc2OC)[nH]1 .
101

Return IC50 for the following molecule: CCC(=O)CCCCC[C@H](NC(=O)[C@H]1CC12CCN(C)CC2)c1ncc(-c2ccc3c(ccc(=O)n3C)c2)o1
9.4
